molecular target: ErbB1 (Homo sapiens, UniProt P00533); construct: gift of Dr. Mark A. Lemmon, University of Pennsylvania School of Medicine; assay: Surface plasmon resonance (Biacore) binding to immobilized ErbB1 extracellular domain; details: immobilized extracellular domain, surface plasmon resonance; read-out: KD (μM) ErbB1
Sequence (P00533 25-645 limits assumed): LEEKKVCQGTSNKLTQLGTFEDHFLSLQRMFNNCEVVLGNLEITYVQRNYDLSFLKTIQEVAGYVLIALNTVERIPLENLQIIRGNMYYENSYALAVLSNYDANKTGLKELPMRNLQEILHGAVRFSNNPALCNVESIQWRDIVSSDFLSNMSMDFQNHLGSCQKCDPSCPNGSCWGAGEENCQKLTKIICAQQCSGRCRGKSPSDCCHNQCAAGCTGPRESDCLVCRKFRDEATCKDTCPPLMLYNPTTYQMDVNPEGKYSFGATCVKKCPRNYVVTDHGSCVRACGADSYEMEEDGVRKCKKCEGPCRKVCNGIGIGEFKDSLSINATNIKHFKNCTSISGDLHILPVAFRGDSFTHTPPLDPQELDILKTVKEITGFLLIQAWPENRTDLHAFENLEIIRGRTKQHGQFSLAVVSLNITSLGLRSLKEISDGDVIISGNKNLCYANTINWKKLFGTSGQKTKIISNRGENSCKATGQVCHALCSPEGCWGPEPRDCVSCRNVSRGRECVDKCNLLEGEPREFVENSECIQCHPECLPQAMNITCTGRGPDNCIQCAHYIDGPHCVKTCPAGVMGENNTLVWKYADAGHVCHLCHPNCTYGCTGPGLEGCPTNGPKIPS
Bridge positions count the residues as written; N and C are the ends. Peptide text beside a SMILES is read from it.
property_measured: Kd (µM)
// note: answer is a bare numeric in µM

Entry CC[C@H](C)[C@@H]1NC(=O)[C@@H]2CCCN2C(=O)[C@@H](NC(=O)[C@@H](N)Cc2ccc(O)cc2)CSSC[C@@H](C(=O)N[C@@H](Cc2ccc(O)cc2)C(N)=O)NC(=O)[C@H](CCC(N)=O)NC(=O)[C@H](C(C)C)NC(=O)[C@H](CC(=O)O)NC(=O)[C@@H]2CCCN2C(=O)[C@H](Cc2ccc(O)cc2)NC(=O)[C@H](CCCCN)NC(=O)[C@H](Cc2ccc(O)cc2)NC1=O [B3-S22-APQ] (H-YCPIYKYPDVQCY-NH2; disulfide 2-12) , ErbB1 (Homo sapiens, UniProt P00533) data, Kd value: 0.472

====

Item-by-item account of Kd
target: ErbB2 (Homo sapiens, UniProt P04626); construct: provided by Dr. Che Law, Xcyte Therapeutics, Seattle; assay: Surface plasmon resonance (Biacore) binding to immobilized ErbB2 extracellular domain; settings: immobilized extracellular domain, surface plasmon resonance; read-out: KD (μM) ErbB2
Sequence (P04626 23-652 limits assumed): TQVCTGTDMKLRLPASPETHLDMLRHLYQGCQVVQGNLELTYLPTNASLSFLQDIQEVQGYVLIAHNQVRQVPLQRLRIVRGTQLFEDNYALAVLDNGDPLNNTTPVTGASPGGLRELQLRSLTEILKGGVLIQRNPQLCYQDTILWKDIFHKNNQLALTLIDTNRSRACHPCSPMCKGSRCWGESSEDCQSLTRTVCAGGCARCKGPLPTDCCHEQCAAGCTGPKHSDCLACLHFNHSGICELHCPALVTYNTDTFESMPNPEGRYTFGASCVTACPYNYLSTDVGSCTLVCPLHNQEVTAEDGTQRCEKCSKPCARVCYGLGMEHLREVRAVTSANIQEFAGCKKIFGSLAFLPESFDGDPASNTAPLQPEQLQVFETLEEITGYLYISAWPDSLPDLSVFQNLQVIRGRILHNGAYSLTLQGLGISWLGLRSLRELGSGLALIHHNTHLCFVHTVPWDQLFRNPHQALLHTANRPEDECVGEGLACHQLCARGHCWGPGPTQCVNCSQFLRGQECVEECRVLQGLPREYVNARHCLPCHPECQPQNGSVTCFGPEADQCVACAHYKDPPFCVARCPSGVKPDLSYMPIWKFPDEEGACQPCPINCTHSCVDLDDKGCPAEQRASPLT
Bridge positions count the residues as written; N and C are the ends. Peptide text beside a SMILES is read from it.
// note: answer is a bare numeric in µM

Guide cases for Kd, answers given:
compound	system	readout_units	Kd
CC(C)C[C@@H]1NC(=O)[C@@H](NC(=O)[C@@H](N)Cc2ccc(O)cc2)CSSC[C@@H](C(=O)N[C@@H](Cc2ccc(O)cc2)C(N)=O)NC(=O)CNC(=O)[C@H](C)NC(=O)[C@H](CC(=O)O)NC(=O)[C@H](C)NC(=O)[C@H](Cc2ccc(O)cc2)NC(=O)[C@H](CCCCN)NC(=O)[C@H](Cc2c[nH]c3ccccc23)NC(=O)[C@H](C(C)C)NC1=O [B1-S22-ALG] (H-YCLVWKYADAGCY-NH2; disulfide 2-12)	ErbB2 (Homo sapiens, UniProt P04626)	µM	0.371
C[C@@H]1NC(=O)CNC(=O)[C@H](CCC(=O)O)NC(=O)[C@H](CCC(=O)O)NC(=O)[C@H](CC(=O)O)NC(=O)[C@@H]2CCCN2C(=O)[C@H](Cc2ccccc2)NC(=O)[C@@H](NC(=O)[C@@H](N)Cc2ccc(O)cc2)CSSC[C@@H](C(=O)N[C@@H](Cc2ccc(O)cc2)C(N)=O)NC1=O [B2-S22-AFA, YCFPDEEGACY] (H-YCFPDEEGACY-NH2; disulfide 2-10)	ErbB2 (Homo sapiens, UniProt P04626)	µM	0.302
CC[C@H](C)[C@@H]1NC(=O)[C@H](Cc2ccccc2)NC(=O)[C@@H](NC(=O)[C@@H](N)Cc2ccc(O)cc2)CSSC[C@@H](C(=O)N[C@@H](Cc2ccc(O)cc2)C(N)=O)NC(=O)[C@H](CC(=O)O)NC(=O)[C@@H]2CCCN2C(=O)[C@H](CC(=O)O)NC(=O)[C@H](C)NC(=O)[C@H](Cc2ccc(O)cc2)NC(=O)[C@H](CCCCN)NC(=O)[C@H](Cc2ccccc2)NC1=O [B4-S22-AFD] (H-YCFIFKYADPDCY-NH2; disulfide 2-12)	ErbB2 (Homo sapiens, UniProt P04626)	µM	0.639

Here is another compound to look at.
Please fill in: Kd reported for CC[C@H](C)[C@@H]1NC(=O)[C@@H]2CCCN2C(=O)[C@@H](NC(=O)[C@@H](N)Cc2ccc(O)cc2)CSSC[C@@H](C(=O)N[C@@H](Cc2ccc(O)cc2)C(N)=O)NC(=O)[C@H](CCC(N)=O)NC(=O)[C@H](C(C)C)NC(=O)[C@H](CC(=O)O)NC(=O)[C@@H]2CCCN2C(=O)[C@H](Cc2ccc(O)cc2)NC(=O)[C@H](CCCCN)NC(=O)[C@H](Cc2ccc(O)cc2)NC1=O [B3-S22-APQ] (H-YCPIYKYPDVQCY-NH2; disulfide 2-12) = 0.549

====

biological target: erbB3-erbB3 homomerization (Homo sapiens); construct: the ectodomains of erbB receptors were immobilized on the surface chip; erbB3: gift of Dr. Mark A. Lemmon; assay: SPR inhibition of HRGβ1-induced binding of ErbB3 to immobilized ErbB3; details: peptide 10 μm, ErbB3 300 nm, HRGβ1 5 μM
Sequence (P21860 20-643 limits assumed): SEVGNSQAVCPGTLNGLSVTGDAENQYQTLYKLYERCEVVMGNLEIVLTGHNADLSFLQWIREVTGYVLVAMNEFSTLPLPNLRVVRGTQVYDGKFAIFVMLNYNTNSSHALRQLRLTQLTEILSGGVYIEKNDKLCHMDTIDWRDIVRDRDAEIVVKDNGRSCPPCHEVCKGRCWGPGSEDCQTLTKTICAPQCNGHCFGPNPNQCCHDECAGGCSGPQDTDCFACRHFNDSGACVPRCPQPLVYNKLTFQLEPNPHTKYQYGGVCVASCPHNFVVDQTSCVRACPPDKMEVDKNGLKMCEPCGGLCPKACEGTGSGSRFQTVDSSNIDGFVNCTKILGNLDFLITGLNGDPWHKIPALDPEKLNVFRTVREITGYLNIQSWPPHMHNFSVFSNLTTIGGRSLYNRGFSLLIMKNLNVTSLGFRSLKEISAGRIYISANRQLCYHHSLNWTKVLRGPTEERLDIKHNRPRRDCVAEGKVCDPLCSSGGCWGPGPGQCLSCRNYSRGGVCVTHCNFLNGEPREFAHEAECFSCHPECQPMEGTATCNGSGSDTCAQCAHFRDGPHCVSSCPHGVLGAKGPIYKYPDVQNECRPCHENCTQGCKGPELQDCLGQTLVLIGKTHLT
Bridge positions count the residues as written; N and C are the ends. Peptide text beside a SMILES is read from it.
property_measured: Percent Inhibition ErbB3

compound	Percent Inhibition ErbB3
CC[C@H](C)[C@@H]1NC(=O)[C@@H]2CCCN2C(=O)[C@@H](NC(=O)[C@@H](N)Cc2ccc(O)cc2)CSSC[C@@H](C(=O)N[C@@H](Cc2ccc(O)cc2)C(N)=O)NC(=O)[C@H](CCC(N)=O)NC(=O)[C@H](C(C)C)NC(=O)[C@H](CC(=O)O)NC(=O)[C@@H]2CCCN2C(=O)[C@H](Cc2ccc(O)cc2)NC(=O)[C@H](CCCCN)NC(=O)[C@H](Cc2ccc(O)cc2)NC1=O [B3-S22-APQ] (H-YCPIYKYPDVQCY-NH2; disulfide 2-12)	32.4%

Here is another compound to look at.
Please fill in: Percent Inhibition ErbB3 reported for CC(C)C[C@@H]1NC(=O)[C@@H](NC(=O)[C@@H](N)Cc2ccc(O)cc2)CSSC[C@@H](C(=O)N[C@@H](Cc2ccc(O)cc2)C(N)=O)NC(=O)CNC(=O)[C@H](C)NC(=O)[C@H](CC(=O)O)NC(=O)[C@H](C)NC(=O)[C@H](Cc2ccc(O)cc2)NC(=O)[C@H](CCCCN)NC(=O)[C@H](Cc2c[nH]c3ccccc23)NC(=O)[C@H](C(C)C)NC1=O [B1-S22-ALG] (H-YCLVWKYADAGCY-NH2; disulfide 2-12) = 75.1%

====

target: erbB3-erbB1 heteromerization (Homo sapiens, UniProt P00533); construct: the ectodomains of erbB receptors were immobilized on the surface chip; erbB1 and erbB3: gift of Dr. Mark A. Lemmon; experiment: SPR inhibition of HRGβ1-induced binding of ErbB3 to immobilized ErbB1; conditions: peptide 10 μm, ErbB3 300 nm, HRGβ1 5 μM
Sequence (P00533 25-645 limits assumed, one chain of several): as the sequence (P00533 25-645 limits assumed) above
Bridge positions count the residues as written; N and C are the ends. Peptide text beside a SMILES is read from it.
property_measured: Percent Inhibition ErbB1 (%)
// note: answer is a bare numeric in %

compound	system	Percent Inhibition ErbB1 (%)
CC(C)C[C@@H]1NC(=O)[C@@H](NC(=O)[C@@H](N)Cc2ccc(O)cc2)CSSC[C@@H](C(=O)N[C@@H](Cc2ccc(O)cc2)C(N)=O)NC(=O)CNC(=O)[C@H](C)NC(=O)[C@H](CC(=O)O)NC(=O)[C@H](C)NC(=O)[C@H](Cc2ccc(O)cc2)NC(=O)[C@H](CCCCN)NC(=O)[C@H](Cc2c[nH]c3ccccc23)NC(=O)[C@H](C(C)C)NC1=O [B1-S22-ALG] (H-YCLVWKYADAGCY-NH2; disulfide 2-12)	erbB3-erbB1 heteromerization (Homo sapiens, UniProt P00533)	65.2
CC[C@H](C)[C@@H]1NC(=O)[C@@H]2CCCN2C(=O)[C@@H](NC(=O)[C@@H](N)Cc2ccc(O)cc2)CSSC[C@@H](C(=O)N[C@@H](Cc2ccc(O)cc2)C(N)=O)NC(=O)[C@H](CCC(=O)O)NC(=O)[C@H](CCC(=O)O)NC(=O)[C@H](CC(=O)O)NC(=O)[C@@H]2CCCN2C(=O)[C@H](Cc2ccccc2)NC(=O)[C@H](CCCCN)NC(=O)[C@H](Cc2c[nH]c3ccccc23)NC1=O [B2-S22-APE] (H-YCPIWKFPDEECY-NH2; disulfide 2-12)	erbB3-erbB1 heteromerization (Homo sapiens, UniProt P00533)	80.3
CC[C@H](C)[C@@H]1NC(=O)[C@H](Cc2ccccc2)NC(=O)[C@@H](NC(=O)[C@@H](N)Cc2ccc(O)cc2)CSSC[C@@H](C(=O)N[C@@H](Cc2ccc(O)cc2)C(N)=O)NC(=O)[C@H](CC(=O)O)NC(=O)[C@@H]2CCCN2C(=O)[C@H](CC(=O)O)NC(=O)[C@H](C)NC(=O)[C@H](Cc2ccc(O)cc2)NC(=O)[C@H](CCCCN)NC(=O)[C@H](Cc2ccccc2)NC1=O [B4-S22-AFD] (H-YCFIFKYADPDCY-NH2; disulfide 2-12)	erbB3-erbB1 heteromerization (Homo sapiens, UniProt P00533)	60.3

Entry CC[C@H](C)[C@@H]1NC(=O)[C@H](Cc2ccc(O)cc2)NC(=O)[C@@H](NC(=O)[C@@H](N)Cc2ccccc2)CSSC[C@@H](C(=O)N[C@@H](Cc2ccc(O)cc2)C(N)=O)NC(=O)[C@H](CCC(N)=O)NC(=O)[C@H](CC(=O)O)NC(=O)[C@H](CCC(=O)O)NC(=O)[C@H](C(C)C)NC(=O)[C@H](CCC(=O)O)NC(=O)CNC1=O [CD4-G, reference compound] (H-FCYIGEVEDQCY-NH2; disulfide 2-11) , erbB3-erbB1 heteromerization (Homo sapiens, UniProt P00533) data, Percent Inhibition ErbB1 value: 2.4

Entry C[C@@H]1NC(=O)CNC(=O)[C@H](CCC(=O)O)NC(=O)[C@H](CCC(=O)O)NC(=O)[C@H](CC(=O)O)NC(=O)[C@@H]2CCCN2C(=O)[C@H](Cc2ccccc2)NC(=O)[C@@H](NC(=O)[C@@H](N)Cc2ccc(O)cc2)CSSC[C@@H](C(=O)N[C@@H](Cc2ccc(O)cc2)C(N)=O)NC1=O [B2-S22-AFA, YCFPDEEGACY] (H-YCFPDEEGACY-NH2; disulfide 2-10) , erbB3-erbB1 heteromerization (Homo sapiens, UniProt P00533) data, Percent Inhibition ErbB1 value: 78.4

Entry CC[C@H](C)[C@@H]1NC(=O)[C@@H]2CCCN2C(=O)[C@@H](NC(=O)[C@@H](N)Cc2ccc(O)cc2)CSSC[C@@H](C(=O)N[C@@H](Cc2ccc(O)cc2)C(N)=O)NC(=O)[C@H](CCC(N)=O)NC(=O)[C@H](C(C)C)NC(=O)[C@H](CC(=O)O)NC(=O)[C@@H]2CCCN2C(=O)[C@H](Cc2ccc(O)cc2)NC(=O)[C@H](CCCCN)NC(=O)[C@H](Cc2ccc(O)cc2)NC1=O [B3-S22-APQ] (H-YCPIYKYPDVQCY-NH2; disulfide 2-12) , erbB3-erbB1 heteromerization (Homo sapiens, UniProt P00533) data, Percent Inhibition ErbB1 value: 69.0
